# target-of-assay: beta-catenin/TCF4 engagement (Homo sapiens, UniProt P35222)
# Construct: expressed in transfected cells; host or cells: HEK293
# Sequence (P35222 whole entry): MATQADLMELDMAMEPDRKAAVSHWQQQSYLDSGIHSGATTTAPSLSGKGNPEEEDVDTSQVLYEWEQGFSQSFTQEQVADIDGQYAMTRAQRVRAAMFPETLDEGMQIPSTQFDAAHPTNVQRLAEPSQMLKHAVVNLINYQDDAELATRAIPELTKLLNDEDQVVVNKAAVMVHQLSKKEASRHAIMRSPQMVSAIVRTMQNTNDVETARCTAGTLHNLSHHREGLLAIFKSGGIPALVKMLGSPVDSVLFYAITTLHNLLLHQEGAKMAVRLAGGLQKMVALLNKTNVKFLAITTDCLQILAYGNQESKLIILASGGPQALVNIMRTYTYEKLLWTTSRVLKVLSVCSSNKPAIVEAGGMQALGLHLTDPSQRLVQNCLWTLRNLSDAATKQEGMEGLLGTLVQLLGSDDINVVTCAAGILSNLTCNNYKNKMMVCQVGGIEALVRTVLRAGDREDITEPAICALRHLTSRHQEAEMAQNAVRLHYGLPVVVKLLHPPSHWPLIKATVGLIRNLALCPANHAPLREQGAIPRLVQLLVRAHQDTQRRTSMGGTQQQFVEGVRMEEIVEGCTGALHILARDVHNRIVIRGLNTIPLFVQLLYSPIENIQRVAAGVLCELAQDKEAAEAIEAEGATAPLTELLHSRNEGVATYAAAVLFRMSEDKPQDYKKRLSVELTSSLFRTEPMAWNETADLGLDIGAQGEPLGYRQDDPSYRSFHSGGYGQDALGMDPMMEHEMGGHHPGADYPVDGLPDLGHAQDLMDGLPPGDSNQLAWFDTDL
# assay: Nano-BRET target engagement assay (B-cat-Halo & TCF4-Luc in HEK293 cells)
# Assay type: cell-based
# measurement-setup: absolute IC50; read-out: NanoBRET Abs IC50
readout-kind: pIC50
Please express pIC50 as -log10 of the molar concentration.

What measured pIC50 is associated with CC(=O)N1CCC[C@]12CC=CCCCC1(CCCC=CCCCOC(=O)N3CC[C@@](C(=O)N[C@@H](Cc4ccccc4Cl)C(=O)N[C@@H](Cc4csc5ccccc45)C(=O)N[C@@H](CC(C)C)C(N)=O)(C3)NC(=O)[C@H](CCCCNC(C)C)NC(=O)[C@H](Cc3ccccc3)NC(=O)[C@H](C)NC(=O)[C@H](C)NC(=O)[C@H](CC(=O)O)NC(=O)[C@H](CC(=O)O)NC1=O)NC(=O)[C@H](CC(C)(C)C)NC(=O)[C@H](CC(=O)O)NC2=O (stereo partly drawn) on beta-catenin/TCF4 engagement (Homo sapiens, UniProt P35222)? 4.61

Entry CC(=O)N1CCC[C@]12CC=CCCCC1(CCCC=CCCCOC(=O)N3CC[C@@](C(=O)N[C@@H](Cc4ccsc4)C(=O)N[C@@H](Cc4csc5ccccc45)C(=O)N[C@H](CO)[C@@H](C)O)(C3)NC(=O)[C@H](Cc3ccccc3)NC(=O)[C@H](Cc3ccccc3)NC(=O)[C@H](C)NC(=O)[C@H](C)NC(=O)[C@H](Cc3ccccc3C(=O)O)NC(=O)[C@H](CC(=O)O)NC1=O)NC(=O)[C@H](CC(C)(C)C)NC(=O)[C@H](CC(=O)O)NC2=O (single isomer, unassigned) [I-1669] , system beta-catenin/TCF4 engagement (Homo sapiens, UniProt P35222): what pIC50 was measured? 4.93

====

# target-of-assay: beta-catenin/TCF4 engagement (Homo sapiens, UniProt P35222)
# Construct: expressed in transfected cells; host or cells: HEK293
# assay: Nano-BRET target engagement assay (B-cat-Halo & TCF4-Luc in HEK293 cells)
# Format: cell-based
# measurement-setup: read-out: NanoBRET Abs IC50
Assign labels as follows, please: condition met for IC50 below 20 µM; condition not met for IC50 equal to or exceeding 20 µM.

Record CC(=O)N1CCC[C@]12CC=CCCCC1(CCCC=CCCCOC(=O)N3CC[C@@](C(=O)N[C@@H](Cc4ccsc4)C(=O)N[C@@H](Cc4csc5ccccc45)C(=O)N[C@@H](CCC(N)=O)C(N)=O)(C3)NC(=O)[C@H](CC(C)C)NC(=O)[C@H](Cc3ccccc3)NC(=O)[C@H](C)NC(=O)[C@H](C)NC(=O)[C@H](CC(=O)O)NC(=O)[C@H](CC(=O)OCCSSc3ccccc3)NC1=O)NC(=O)[C@H](CC(C)(C)C)NC(=O)[C@H](CC(=O)O)NC2=O (stereo partly drawn) : is its IC50 strictly below 20 µM? condition not met

Threshold test, IC50 < 20 µM: CC(=O)N1CCC[C@]12CC=CCCCC1(CCCC=CCCCOC(=O)N3CC[C@@](C(=O)N[C@@H](Cc4ccccc4Cl)C(=O)N[C@@H](Cc4csc5ccccc45)C(=O)N[C@H](C(N)=O)C(C)C)(C3)NC(=O)[C@H](CO)NC(=O)[C@H](Cc3ccccc3)NC(=O)[C@H](C)NC(=O)[C@H](C)NC(=O)[C@H](Cc3cccc(C(=O)O)c3)NC(=O)[C@H](CC(=O)O)NC1=O)NC(=O)[C@H](CC(C)(C)C)NC(=O)[C@H](CC(=O)O)NC2=O (stereo partly drawn) condition met

For this molecule, is IC50 lower than 20 µM? CC(=O)N1CCC[C@]12CC=CCCCC1(CCCC=CCCCOC(=O)N3CC[C@@](C(=O)N[C@@H](Cc4ccsc4)C(=O)N[C@@H](Cc4csc5ccccc45)C(=O)N[C@@H](CCC(N)=O)C(N)=O)(C3)NC(=O)[C@H](CC(C)C)NC(=O)[C@H](Cc3cccc(C(=O)O)c3)NC(=O)[C@H](C)NC(=O)[C@H](C)NC(=O)[C@H](Cc3ccc(O)cc3)NC(=O)[C@H](CC(=O)O)NC1=O)NC(=O)[C@H](CC(C)(C)C)NC(=O)[C@H](CC(=O)O)NC2=O (stereo partly drawn) condition not met

I wonder whether CC(=O)N1CCC[C@]12CC=CCCCC1(CCCC=CCCCOC(=O)N3CC[C@@](C(=O)N[C@@H](Cc4ccccc4Cl)C(=O)N[C@@H](Cc4csc5ccccc45)C(=O)N[C@@H](CCC(N)=O)C(N)=O)(C3)NC(=O)[C@H](CC(C)C)NC(=O)[C@H](Cc3ccc(C(F)(F)F)cc3)NC(=O)[C@H](C)NC(=O)[C@H](C)NC(=O)[C@H](CC(=O)O)NC(=O)[C@H](CC(=O)O)NC1=O)NC(=O)[C@H](CC(C)(C)C)NC(=O)[C@H](CC(=O)O)NC2=O (stereo partly drawn) has IC50 below 20 µM. Can you tell? condition not met

Say whether its IC50 is strictly beneath 20 µM. Entry: CC(=O)N1CCC[C@]12CC=CCCCC1(CCCC=CCCCOC(=O)N3CC[C@@](C(=O)N[C@@H](Cc4ccsc4)C(=O)N[C@@H](Cc4csc5ccccc45)C(=O)N[C@@H](CC(C)C)C(N)=O)(C3)NC(=O)[C@H](CC(C)C)NC(=O)[C@H](Cc3ccccc3)NC(=O)[C@H](C)NC(=O)[C@H](CCC(N)=O)NC(=O)[C@H](Cc3cccc(C(=O)O)c3)NC(=O)[C@H](CC(=O)O)NC1=O)NC(=O)[C@H](CC(C)(C)C)NC(=O)[C@H](CC(=O)O)NC2=O (stereo partly drawn) condition met

Quick check: IC50 of CC(=O)N1CCC[C@]12CC=CCCCC1(CCCC=CCCCCOC(=O)N3CC[C@@](C(=O)N[C@@H](Cc4ccsc4)C(=O)N[C@@H](Cc4csc5ccccc45)C(=O)N[C@@H](CCC(N)=O)C(=O)N[C@H](C)C(N)=O)(C3)NC(=O)[C@H](CC(N)=O)NC(=O)[C@H](Cc3ccccc3)NC(=O)[C@H](C)NC(=O)[C@H](C)NC(=O)[C@H](CC(=O)O)NC(=O)[C@H](CC(=O)O)NC1=O)NC(=O)[C@H](CC(C)(C)C)NC(=O)[C@H](CC(=O)O)NC2=O (stereo partly drawn) [I-831] under 20 µM? condition not met

Bench note: check whether COCCOCCOCCOCCOCCOCCC(=O)NCCCC[C@H](NC(=O)[C@H](CCC(N)=O)NC(=O)[C@H](Cc1csc2ccccc12)NC(=O)[C@H](Cc1ccsc1)NC(=O)[C@]12CCN(C1)C(=O)OCCCC=CCCCC1(CCCC=CC[C@]3(CCCN3C(C)=O)C(=O)N[C@@H](CC(=O)O)C(=O)N[C@@H](CC(C)(C)C)C(=O)N1)C(=O)N[C@@H](CC(=O)O)C(=O)N[C@@H](CC(=O)O)C(=O)N[C@@H](C)C(=O)N[C@@H](C)C(=O)N[C@@H](Cc1ccccc1)C(=O)N[C@@H](CC(N)=O)C(=O)N2)C(N)=O (stereo partly drawn) shows IC50 below 20 µM condition not met

Take the molecule CC(=O)N1CCC[C@]12CC=CCCCC1(CCCC=CCCCOC(=O)N3CC[C@@](C(=O)N[C@@H](Cc4ccsc4)C(=O)N[C@@H](Cc4csc5ccccc45)C(=O)N[C@@H](Cc4ccccc4)C(N)=O)(C3)NC(=O)[C@H](CC(C)C)NC(=O)[C@H](Cc3ccccc3)NC(=O)[C@H](C)NC(=O)[C@H](CCCCN)NC(=O)[C@H](Cc3cccc(C(=O)O)c3)NC(=O)[C@H](CC(=O)O)NC1=O)NC(=O)[C@H](CC(C)(C)C)NC(=O)[C@H](CC(=O)O)NC2=O (stereo partly drawn) and say whether its IC50 is less than 20 µM. condition not met

I'd appreciate it if you could check whether CC(=O)N1CCC[C@]12CC=CCCCC1(CCCC=CCCCOC(=O)N3CC[C@@](C(=O)N[C@@H](Cc4ccsc4)C(=O)N[C@@H](Cc4csc5ccccc45)C(=O)N[C@@H](C)C(N)=O)(C3)NC(=O)[C@H](C)NC(=O)[C@H](Cc3ccccc3)NC(=O)[C@H](C)NC(=O)[C@H](CCC(N)=O)NC(=O)[C@H](Cc3cccc(C(=O)O)c3)NC(=O)[C@H](CC(=O)O)NC1=O)NC(=O)[C@H](CC(C)(C)C)NC(=O)[C@H](CC(=O)O)NC2=O (stereo partly drawn) has IC50 smaller than 20 µM. condition met

====

Please provide measured IC50 for the entries that follow.
# target-of-assay: full-length beta-Catenin (Uniprot ID P35222) (Homo sapiens, UniProt P35222)
# Construct: 10 nM full-length beta-Catenin (Uniprot ID P35222)
# assay: Fluorescence polarization IC50 (beta-catenin / 5FAM-TCF4 10-53 competition)
# Format: binding
# measurement-setup: fluorescence polarization; read-out: beta-Catenin FP IC50
Please give a number only; it is taken to be in nM.

Which IC50 value belongs to CC(=O)N1CCC[C@]12CC=CCCCC1(CCCC=CCCCOC(=O)N3CC[C@@](C(=O)N[C@@H](Cc4ccsc4)C(=O)N[C@@H](Cc4csc5ccccc45)C(=O)N[C@@H](CC(N)=O)C(=O)N[C@@H](C)C(=O)N[C@@H](CC(C)C)C(=O)N[C@@H](C)C(=O)N[C@@H](CC(C)C)C(=O)N[C@@H](C)C(N)=O)(C3)NC(=O)[C@H](CC(C)C)NC(=O)[C@H](Cc3ccccc3)NC(=O)[C@H](C)NC(=O)[C@H](C)NC(=O)[C@H](Cc3cccc(C(=O)O)c3)NC(=O)[C@H](CC(=O)O)NC1=O)NC(=O)[C@H](CC(C)(C)C)NC(=O)[C@H](CC(=O)O)NC2=O (some centres unmarked) [I-2282] ? 155

Please report the recorded IC50 for CC(=O)N1CCC[C@]12CC=CCCCC1(CCCC=CCCCOC(=O)N3CC[C@@](C(=O)N[C@@H](Cc4ccsc4)C(=O)N[C@@H](Cc4csc5ccccc45)C(=O)N[C@@H](CCC(N)=O)C(N)=O)(C3)NC(=O)[C@H](CCO)NC(=O)[C@H](Cc3ccccc3)NC(=O)[C@H](C)NC(=O)[C@H](C)NC(=O)[C@H](Cc3c[nH]cn3)NC(=O)[C@H](CC(=O)O)NC1=O)NC(=O)[C@H](CC(C)(C)C)NC(=O)[C@H](CC(=O)O)NC2=O (some centres unmarked) [I-1793] . 20
